Cited source: ChEMBL document CHEMBL1649368

- run-description: Cytotoxicity against human MT4 cells after 5 days by spectrophotometry
- Type: cell-based
endpoint: CC50 at 120 h (µM)
Kindly provide the numeric value in µM only, without the unit symbol.

Ask: Fill in the blank: the reported CC50 at 120 h of CCn1cc(C(=O)O)c(=O)c2cc(F)c(N3CCN(CN4C(=O)/C(=N\NC(=S)NOC)c5cc(F)ccc54)C(C)C3)c(F)c21 (stereo not given) is ____.
Result: 178

Ask: Fill in the blank: the reported CC50 at 120 h of CONC(=S)N/N=C1\C(=O)N(CN2CCN(c3ccccc3)CC2)c2ccc(F)cc21 is ____.
Result: 227

Ask: Fill in the blank: the reported CC50 at 120 h of CCN(CC)CN1C(=O)/C(=N\NC(=S)NOC)c2cc(F)ccc21 is ____.
Result: 490

Ask: Fill in the blank: the reported CC50 at 120 h of CONC(=S)N/N=C1\C(=O)N(CN2CCN(c3ccc(OC)cc3)CC2)c2ccc(F)cc21 is ____.
Result: 276

Ask: Fill in the blank: the reported CC50 at 120 h of CCn1cc(C(=O)O)c(=O)c2cc(F)c(N3CCN(CN4C(=O)/C(=N\NC(=S)NOC)c5cc(F)ccc54)CC3)cc21 is ____.
Result: 144

----------
I'd appreciate it if you could supply CC50 at 120 h values for the items below.
- run-description: Cytotoxicity against human MT4 cells after 5 days by spectrophotometry
- Assay type: cell-based
Kindly provide the numeric value in µM only, without the unit symbol.

Ask: Fill in the blank: the reported CC50 at 120 h of CONC(=S)N/N=C1\C(=O)N(CN(C)C)c2ccc(Cl)cc21 is ____.
Result: 552

Ask: Fill in the blank: the reported CC50 at 120 h of CCn1cc(C(=O)O)c(=O)c2cc(F)c(N3CCN(CN4C(=O)/C(=N\NC(=S)NO)c5cc(F)ccc54)C(C)C3)c(F)c21 (stereo not given) is ____.
Result: 187

Ask: Fill in the blank: the reported CC50 at 120 h of CONC(=S)N/N=C1\C(=O)N(CN2CCN(c3c(F)cc4c(=O)c(C(=O)O)cn(C5CC5)c4c3OC)CC2C)c2ccc(C)cc21 (stereo not given) is ____.
Result: 154

Ask: Fill in the blank: the reported CC50 at 120 h of COc1ccc(N2CCN(CN3C(=O)/C(=N\NC(=S)NO)c4cc(Cl)ccc43)CC2)cc1 is ____.
Result: 279

Ask: Fill in the blank: the reported CC50 at 120 h of Cc1ccc2c(c1)/C(=N/NC(=S)NO)C(=O)N2CN1CCOCC1 is ____.
Result: 572

----------
- Test system: Mycobacterium tuberculosis
- run-description: Antimycobacterial activity against Mycobacterium tuberculosis H37Ra assessed as inhibition of bacterial growth in dormant phase
- Type: functional
endpoint: MIC (µM)
Kindly provide the numeric value in µM only, without the unit symbol.

Ask: Fill in the blank: the reported MIC of Cc1ccc2c(c1)/C(=N/NC(=S)NO)C(=O)N2CN1CCN(c2cc3c(cc2F)c(=O)c(C(=O)O)cn3C2CC2)CC1 is ____.
Result: 12.1

Ask: Fill in the blank: the reported MIC of CCn1cc(C(=O)O)c(=O)c2cc(F)c(N3CCN(CN4C(=O)/C(=N\NC(=S)NO)c5cc(C)ccc54)C(C)C3)c(F)c21 (stereo not drawn) is ____.
Result: 34.6

Ask: Fill in the blank: the reported MIC of CONC(=S)N/N=C1\C(=O)N(CN2CCN(c3ccc(Cl)cc3)CC2)c2ccc(C)cc21 is ____.
Result: 20.4

Ask: Fill in the blank: the reported MIC of CONC(=S)N/N=C1\C(=O)N(CN2CCN(c3ccc(Cl)cc3)CC2)c2ccc(F)cc21 is ____.
Result: 42.1

Ask: Fill in the blank: the reported MIC of CONC(=S)N/N=C1\C(=O)N(CN2CCOCC2)c2ccc(F)cc21 is ____.
Result: 13.5

Ask: Fill in the blank: the reported MIC of CCn1cc(C(=O)O)c(=O)c2cc(F)c(N3CCN(CN4C(=O)/C(=N\NC(=S)NOC)c5cc(Cl)ccc54)CC3)cc21 is ____.
Result: 19.6

Ask: Fill in the blank: the reported MIC of O=C(O)c1cn(C2CC2)c2cc(N3CCN(CN4C(=O)/C(=N\NC(=S)NO)c5cc(F)ccc54)CC3)c(F)cc2c1=O is ____.
Result: 13.1

Ask: Fill in the blank: the reported MIC of CCn1cc(C(=O)O)c(=O)c2cc(F)c(N3CCN(CN4C(=O)/C(=N\NC(=S)NO)c5cc(F)ccc54)C(C)C3)c(F)c21 (stereo not drawn) is ____.
Result: 36.9

----------
I'd appreciate it if you could supply CC50 at 120 h values for the items below.
- run-description: Cytotoxicity against human MT4 cells after 5 days by spectrophotometry
- Assay type: cell-based
Kindly provide the numeric value in µM only, without the unit symbol.

Ask: Fill in the blank: the reported CC50 at 120 h of CCN(CC)CN1C(=O)/C(=N\NC(=S)NO)c2cc(Cl)ccc21 is ____.
Result: 562

Ask: Fill in the blank: the reported CC50 at 120 h of O=C1/C(=N\NC(=S)NO)c2cc(Cl)ccc2N1CN1CCOCC1 is ____.
Result: 348

Ask: Fill in the blank: the reported CC50 at 120 h of CN(C)CN1C(=O)/C(=N\NC(=S)NO)c2cc(F)ccc21 is ____.
Result: 599

Ask: Fill in the blank: the reported CC50 at 120 h of Cc1ccc2c(c1)/C(=N/NC(=S)NO)C(=O)N2CN1CCN(c2ccccc2)CC1 is ____.
Result: 420

Ask: Fill in the blank: the reported CC50 at 120 h of CONC(=S)N/N=C1\C(=O)N(CN2CCN(c3ccc(Cl)cc3)CC2)c2ccc(C)cc21 is ____.
Result: 300

Ask: Fill in the blank: the reported CC50 at 120 h of CCn1cc(C(=O)O)c(=O)c2cc(F)c(N3CCN(CN4C(=O)/C(=N\NC(=S)NOC)c5cc(C)ccc54)C(C)C3)c(F)c21 (centres undefined) is ____.
Result: 156

Ask: Fill in the blank: the reported CC50 at 120 h of CCN(CC)CN1C(=O)/C(=N\NC(=S)NO)c2cc(C)ccc21 is ____.
Result: 534

Ask: Fill in the blank: the reported CC50 at 120 h of CONC(=S)N/N=C1\C(=O)N(CN2CCN(c3cc4c(cc3F)c(=O)c(C(=O)O)cn4C3CC3)CC2)c2ccc(F)cc21 is ____.
Result: 255

Ask: Fill in the blank: the reported CC50 at 120 h of CONC(=S)N/N=C1\C(=O)N(CN(C)C)c2ccc(F)cc21 is ____.
Result: 560

Ask: Fill in the blank: the reported CC50 at 120 h of CONC(=S)N/N=C1\C(=O)N(CN2CCN(c3ccccc3)CC2)c2ccc(Cl)cc21 is ____.
Result: 267

Ask: Fill in the blank: the reported CC50 at 120 h of CCn1cc(C(=O)O)c(=O)c2cc(F)c(N3CCN(CN4C(=O)/C(=N\NC(=S)NO)c5cc(Cl)ccc54)CC3)cc21 is ____.
Result: 186

Ask: Fill in the blank: the reported CC50 at 120 h of Cc1ccc2c(c1)/C(=N/NC(=S)NO)C(=O)N2CN1CCN(c2cc3c(cc2F)c(=O)c(C(=O)O)cn3C2CC2)CC1 is ____.
Result: 304

Ask: Fill in the blank: the reported CC50 at 120 h of CONC(=S)N/N=C1\C(=O)N(CN2CCN(c3ccccc3)CC2)c2ccc(C)cc21 is ____.
Result: 276

Ask: Fill in the blank: the reported CC50 at 120 h of CONC(=S)N/N=C1\C(=O)N(CN(C)C)c2ccc(C)cc21 is ____.
Result: 622

Ask: Fill in the blank: the reported CC50 at 120 h of COc1ccc(N2CCN(CN3C(=O)/C(=N\NC(=S)NO)c4cc(C)ccc43)CC2)cc1 is ____.
Result: 321

Ask: Fill in the blank: the reported CC50 at 120 h of CCn1cc(C(=O)O)c(=O)c2cc(F)c(N3CCN(CN4C(=O)/C(=N\NC(=S)NOC)c5cc(Cl)ccc54)CC3)cc21 is ____.
Result: 193

Ask: Fill in the blank: the reported CC50 at 120 h of CONC(=S)N/N=C1\C(=O)N(CN2CCOCC2)c2ccc(C)cc21 is ____.
Result: 365

Ask: Fill in the blank: the reported CC50 at 120 h of CONC(=S)N/N=C1\C(=O)N(CN2CCN(c3cc4c(cc3F)c(=O)c(C(=O)O)cn4C3CC3)CC2)c2ccc(C)cc21 is ____.
Result: 232

Ask: Fill in the blank: the reported CC50 at 120 h of CONC(=S)N/N=C1\C(=O)N(CN2CCN(c3ccc(OC)cc3)CC2)c2ccc(C)cc21 is ____.
Result: 324
